Values were extracted from ChEMBL document CHEMBL4296182.

system: Staphylococcus aureus; assay: Antibacterial activity against Staphylococcus aureus MRSA ATCC 43300 (CO-ADD:GP_020); MIC in CAMBH media using NBS plates, by Resazurin F(560/590); assay type: functional; conditions: Concentration 20 uM, ASSAY_TEST Inhibition of Bacterial Growth, detection method Resazurin, Fluorescence (ex560/em590), MEDIA CAMHB, plate type 384well, CORNING #3640, time 18 hr
recorded-endpoint: Inhibition (%)
Give just the number in %; leave the unit off.

>>> assay_value("Cc1c(C(C)(C(=O)O)c2c(C)n(C)c3ccccc23)c2ccccc2n1C")
11.46
>>> assay_value("O=C1CSC(=S)N1/N=C/c1c[nH]c2ccc(Br)cc12")
-3.88
>>> assay_value("C1CCCC(NC2=NCCO2)CCC1")
-8.35
>>> assay_value("Oc1ncnc(CN2CCCCC2)c1O")
7.4
>>> assay_value("Oc1ccc(Cc2ccc(Cl)cc2)c(O)c1")
10.37
>>> assay_value("N#CCS(=O)(=O)c1cccc[n+]1[O-]")
7.02
>>> assay_value("O=C1CCC(c2ccccc2)(c2ccccc2)CC1")
-6.5
>>> assay_value("CCOC(=O)Nc1cc2c(c(N)n1)N=C(c1ccccc1)CN2")
13.64

*Q* Report Inhibition for C=C(C)c1nc(Oc2ccccc2)nc(Oc2ccccc2)n1 please.
*A* 19.07

*Q* Entry Clc1ccc(Nc2nnc(-c3ccc4c(c3)OCO4)o2)cc1 has what Inhibition?
*A* -8.18

====

tested on: Candida albicans; conditions: 20 µM
Description: Antifungal activity against Candida albicans ATCC 90028 (CO-ADD:FG_001); MIC in YNB media using NBS plates, by OD630
Potency and affinity values are given separately.
recorded-endpoint: Inhibition (%)
Give a bare numeral; the unit % is implied.

Study these solved cases before continuing.
>>> assay_value("O=C(O)c1ccccc1-c1ccccc1C(=O)Nc1ccc2c(c1)nc(O)c1ccccc12")
7.22
>>> assay_value("CCCCn1ccnc1C")
0.01
>>> assay_value("COc1cc2c(cc1OC)C(=O)Cc1ccc3c(c1CN(C)CC2)OCO3")
-0.52
>>> assay_value("COc1cc(OC)c2c(=O)cc(-c3cccnc3)oc2c1")
2.37
>>> assay_value("Cn1c(C(=O)c2ccncc2)cc2ccccc21")
5.59
>>> assay_value("NC(CC(=O)Nc1cc(C(F)(F)F)ccc1Cl)=NO")
3.79

*Q* // lookup Inhibition | system=Candida albicans | key= COc1cccc(/C=C2\CCc3ccccc3C2=O)c1
*A* 9.78

*Q* Please state recorded Inhibition (tested on Candida albicans) of CNc1ncnc2c1cnn2C1CCCCO1 (configuration not stated)
*A* -2.26

*Q* Record CC(=O)Nc1ccc2cc3ccc(NC(C)=O)cc3nc2c1 : what is its Inhibition with Candida albicans?
*A* 3.5

*Q* Request body: readout Inhibition, system Candida albicans, query CCOc1ccc(Nc2c3ccccc3nc3ccccc23)cc1 . Return the value.
*A* -0.79

*Q* Param readout = Inhibition; param system = Candida albicans; param query = CN1C(=O)CC2(C)C1=CCc1scnc12 (configuration not stated) ; response: value
*A* 2.6

====

test system: Staphylococcus aureus; assay: Antibacterial activity against Staphylococcus aureus MRSA ATCC 43300 (CO-ADD:GP_020); MIC in CAMBH media using NBS plates, by Resazurin F(560/590); assay type: functional; conditions: Concentration 20 uM, ASSAY_TEST Inhibition of Bacterial Growth, detection method Resazurin, Fluorescence (ex560/em590), MEDIA CAMHB, plate type 384well, CORNING #3640, time 18 hr
hey, just use Met if measured Inhibition is less than 10%, otherwise Not met

// below: answered compounds
>>> category("CSc1cccc(NC(=O)Nc2nc3c(C)cccc3s2)c1")
"Met"
>>> category("C=CCN1CCN(c2ccncc2S(=O)(=O)N2CCN(C)CC2)CC1")
"Not met"
>>> category("O=[N+]([O-])c1ccc(Sc2ncccn2)c([N+](=O)[O-])c1")
"Met"
>>> category("O=C(Nc1cccc(Cl)c1)Nn1cnnc1")
"Not met"
>>> category("CCSc1nc(C)cc(S)n1")
"Met"
>>> category("CCCc1nc2c(=O)n(C)c(=O)n(C)c2[nH]1")
"Not met"

*Q* Strictly below 10%: is that where Inhibition of Sc1ncnc2c1cnn2-c1ccccc1 sits?
*A* Met

*Q* Please determine if O=C(Nc1ccsn1)c1ccc(Cl)cc1Cl is below 10% in terms of Inhibition.
*A* Met

====

test system: Acinetobacter baumannii; assay: Antibacterial activity against Acinetobacter baumannii ATCC 19606 (CO-ADD:GN_034); MIC in CAMBH media using NBS plates, by Resazurin F(560/590); assay type: functional; settings: Concentration 20 uM, ASSAY_TEST Inhibition of Bacterial Growth, detection method Resazurin, Fluorescence (ex560/em590), MEDIA CAMHB, plate type 384well, CORNING #3640, time 18 hr
recorded-endpoint: Inhibition (%)
Please give a number only; it is taken to be in %.

>>> assay_value("CSc1nc(C)cc(S)n1")
-7.16

*Q* Look up Inhibition for this compound: Cc1ccc(-n2nnnc2-c2cccnc2)cc1
*A* -2.15

*Q* Record request: Inhibition value, item CC(C)(C)CC(C)(C)N1CN=C(S)NC1
*A* 8.83

*Q* Requested field: Inhibition. Item: CCNC(=O)Oc1cccnc1O
*A* -10.2

*Q* Returns the measured Inhibition for the input compound. Input: COc1ccn(C2CCCCO2)c(=O)n1 (configuration not stated)
*A* -10.23

*Q* Please look up its Inhibition: CC(=O)CC[N+](C)(C)C.[I-]
*A* -9.05

*Q* Which measured Inhibition value corresponds to CCC(C)n1c(C)cc(=O)n1C(C)CC (configuration not stated) ?
*A* -5.44

*Q* Can you look up the measured Inhibition of C(=C\c1ccccn1)/c1ccccn1 for me?
*A* -5.17

*Q* Can you share its Inhibition? I mean this compound: CC1CCCC(CC(=O)O)(CC(=O)O)C1 (configuration not stated)
*A* 0.95

*Q* Value lookup for Inhibition; key = Nc1nnc(-c2cccnc2)s1
*A* -10.83

*Q* So what does the record say about Inhibition for Cc1c(Cl)cccc1Nc1ncccc1C(=O)OCC(O)CO (configuration not stated) ?
*A* 6.56

*Q* Quick one: Inhibition of Cc1cc(/C=C2\SC(=S)NC2=O)cc(C)c1O ?
*A* -16.06

*Q* Need Inhibition, item Cc1cc(=O)c2c(o1)C(=O)c1occc1C2=O
*A* -9.35

====

system: Klebsiella pneumoniae; conditions: Concentration 20 uM; ASSAY_TEST Inhibition of Bacterial Growth; detection method Absorption (OD600); MEDIA CAMHB; plate type 384well; NBS; CORNING #3640; time 18 hr
Description: Antibacterial activity against Klebsiella pneumoniae MDR ATCC 70063 (CO-ADD:GN_003); MIC in CAMBH media using NBS plates, by OD(600)
Entries with a potency or affinity are not part of this list.
recorded-endpoint: Inhibition (%)
Report as a plain number; the unit % is understood.

*Q* Give recorded Inhibition with Klebsiella pneumoniae for the following compound: O=C(O)c1cc(Cl)nnc1O
*A* -7.82

*Q* I'm curious: which Inhibition was measured for O=C(O)c1ccccc1C(=O)Nc1ccccc1[N+](=O)[O-] tested on Klebsiella pneumoniae?
*A* 12.98

====

test system: Acinetobacter baumannii; assay: Antibacterial activity against Acinetobacter baumannii ATCC 19606 (CO-ADD:GN_034); MIC in CAMBH media using NBS plates, by Resazurin F(560/590); assay type: functional; conditions: Concentration 20 uM, ASSAY_TEST Inhibition of Bacterial Growth, detection method Resazurin, Fluorescence (ex560/em590), MEDIA CAMHB, plate type 384well, CORNING #3640, time 18 hr
Recorded Inhibition for the following compounds
Report the figure in % without appending any unit label.

Reference set, count: 8
>>> assay_value("CC(=O)Nc1c(C)cc(OCC(=O)O)cc1C")
-5.79
>>> assay_value("CC(=O)Oc1ccc2cc(-c3ccccc3)c(=O)oc2c1")
8.94
>>> assay_value("CN(C)c1ccc(/C=C/C(=O)c2cc(Cl)ccc2O)cc1")
-19.64
>>> assay_value("CC(=O)NCC(=O)O.CN(C)CCC1c2ccc(Cl)cc2CCc2cccnc21 (stereo not given) [CLOSIRAMINE ACETURATE]")
-11.76
>>> assay_value("COc1ccc2c(c1)C(=O)C1NC(=O)NC(=O)C1(Br)N2 (stereo not given)")
-10.78
>>> assay_value("Clc1nnc2c3ccccc3ccn12")
2.03
>>> assay_value("O=C1c2ccccc2C2=C3C(O)=NN=C3CCN12")
14.87
>>> assay_value("Cc1ccc(NC(=O)N2CCCCC2)cc1[N+](=O)[O-]")
-10.39

*Q* What Inhibition value was documented for this compound, CC(C)N(Cc1ccccc1)S(=O)(=O)c1nc(C(C)(C)C)n[nH]1 ?
*A* 7.66

*Q* Look up Inhibition: Cc1ccc(C(C)C)cc1NC(=O)Nc1ccc([N+](=O)[O-])cc1
*A* 7.88

*Q* Requested field: Inhibition. Item: CC(=O)NS(=O)(=O)c1ccc2sc(C)nc2c1
*A* -11.67

*Q* For the compound shown here, Nc1nc(N)c(/N=N/c2ccc(S(N)(=O)=O)cc2)c(O)n1 , give the reported Inhibition.
*A* -8.6
